- Subject of test: human recombinant BACE1 (Homo sapiens (Human))
- Sequence (P56817 46-501): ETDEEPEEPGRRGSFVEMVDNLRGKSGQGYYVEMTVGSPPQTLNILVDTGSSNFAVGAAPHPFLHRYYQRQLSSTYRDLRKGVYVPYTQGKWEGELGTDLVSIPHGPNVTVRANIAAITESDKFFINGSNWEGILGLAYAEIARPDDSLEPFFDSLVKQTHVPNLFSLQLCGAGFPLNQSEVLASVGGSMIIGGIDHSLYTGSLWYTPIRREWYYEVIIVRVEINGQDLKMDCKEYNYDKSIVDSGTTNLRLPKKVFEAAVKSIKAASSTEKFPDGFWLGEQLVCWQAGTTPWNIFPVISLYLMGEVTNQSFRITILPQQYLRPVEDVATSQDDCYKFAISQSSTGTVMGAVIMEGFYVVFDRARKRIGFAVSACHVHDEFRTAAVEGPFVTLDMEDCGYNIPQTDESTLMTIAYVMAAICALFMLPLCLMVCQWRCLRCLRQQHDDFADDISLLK
- Protocol details: In vitro enzymatic BACE1 FRET assay
- Format: biochemical
- Condition parameters: read-out: IC50 IP (μM) BACE1 enzyme
Measurement name: IC50 (µM)

- Query smiles: "C#CCOc1cnc(C(=O)Nc2cnc(F)c([C@@]3(C)N=C(N)S[C@@]4(COC)C[C@H]43)c2)c(C)n1"
  Subject of test: "human recombinant BACE1 (Homo sapiens (Human))"
  IC50, µM: 0.0026
- Query smiles: "C#C[C@H](C)Oc1cnc2c(Nc3cc(F)c(F)c([C@@]4(C)N=C(N)S[C@@]5(C#N)C[C@H]54)c3)nccc2n1"
  Subject of test: "human recombinant BACE1 (Homo sapiens (Human))"
  IC50, µM: 0.000902
- Query smiles: "Cc1cc(OCC(F)(F)F)cnc1C(=O)Nc1cc(F)c(F)c([C@@]2(C)N=C(N)S[C@@]3(CF)C[C@H]32)c1"
  Subject of test: "human recombinant BACE1 (Homo sapiens (Human))"
  IC50, µM: 0.00612

P. C#CCOc1cnc2c(Nc3ccc(F)c([C@@]4(C)N=C(N)S[C@]5([C@@H](C)O)[C@H]4C5(F)F)c3)nccc2n1
Q. C[C@]1(c2cc(Nc3ncnc4cc(OCc5ncco5)cnc34)cnc2F)N=C(N)S[C@@]2(CC#N)C[C@H]21
Kindly compare P with Q and tell me which has the lower IC50 figure. Mark your answer with the label of the selected entry.
P

P. C[C@]1(c2cc(Nc3ncnc4cc(OCc5ncco5)cnc34)cnc2F)N=C(N)S[C@@]2([C@@H](O)C(F)(F)F)C[C@H]21
Q. C#C[C@H](C)Oc1cnc2c(Nc3ccc(F)c([C@@]4(C)N=C(N)S[C@@]5(CF)C[C@H]54)c3)nccc2n1
Which gives the smaller IC50 number: P or Q ? Write the label of whichever entry you select.
Q
(Q: 0.000771 µM, P: 0.0033 µM)

====

- Subject of test: human recombinant BACE2 (Homo sapiens (Human), UniProt Q9Y5Z0)
- Sequence (Q9Y5Z0 63-518): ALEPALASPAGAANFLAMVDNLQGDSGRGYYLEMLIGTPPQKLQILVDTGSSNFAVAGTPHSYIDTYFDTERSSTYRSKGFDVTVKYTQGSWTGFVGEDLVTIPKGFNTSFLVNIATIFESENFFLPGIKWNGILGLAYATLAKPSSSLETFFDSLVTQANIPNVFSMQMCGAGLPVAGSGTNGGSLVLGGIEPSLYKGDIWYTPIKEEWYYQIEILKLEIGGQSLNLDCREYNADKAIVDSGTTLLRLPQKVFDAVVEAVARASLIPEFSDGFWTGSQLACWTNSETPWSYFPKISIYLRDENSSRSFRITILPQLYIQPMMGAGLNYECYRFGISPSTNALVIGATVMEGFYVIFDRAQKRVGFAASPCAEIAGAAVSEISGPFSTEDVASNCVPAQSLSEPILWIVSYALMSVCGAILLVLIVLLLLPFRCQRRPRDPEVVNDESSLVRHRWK
- Protocol details: In vitro enzymatic BACE2 FRET assay
- Format: biochemical
- Condition parameters: read-out: IC50 IP (μM) BACE2 enzyme
Measurement name: IC50 (µM)

- Query smiles: "CC#CCOc1cnc2c(Nc3cc(F)c(F)c([C@@]4(C)N=C(N)S[C@@]5(C(F)F)C[C@@H]45)c3)nccc2n1"
  IC50 [µM]: 0.0211

a. C[C@H](Oc1cnc2c(Nc3cc(F)c(F)c([C@@]4(C)N=C(N)S[C@@]5(C(=O)N6CCCC6)C[C@H]54)c3)nccc2n1)c1ncco1
b. C[C@]1(c2cc(NC(=O)c3cnc(OCC(F)(F)F)cn3)ccc2F)N=C(N)S[C@@]2(C(=O)N3CC[C@@H](F)C3)C[C@H]21
For the pair a and b , which entry has the numerically smaller recorded IC50? Let me know the label of the one you choose.
b

a. CCC#CCOc1cnc2c(Nc3ccc(F)c([C@@]4(CF)N=C(N)S[C@@]5(/C=C/C(=O)N(C)C)C[C@H]54)c3)nccc2n1
b. Cc1noc(COc2cnc(C(=O)Nc3ccc(F)c([C@@]4(C)N=C(N)S[C@@]5(C(F)F)C[C@@H]45)c3)cn2)n1
Of a and b , whose reported IC50 is the larger number? To answer, give the label that identifies your chosen option.
b

====

- Subject of test: human recombinant BACE2 (Homo sapiens (Human), UniProt Q9Y5Z0)
- Protocol details: In vitro enzymatic BACE2 FRET assay
- Format: biochemical
- Condition parameters: read-out: IC50 IP (μM) BACE2 enzyme
Measurement name: IC50 (µM)

- Molecule: "COC[C@]12C[C@H]1[C@@](C)(c1cc(NC(=O)c3cnc(OCc4nccs4)cn3)cc(F)c1F)N=C(N)S2"
  IC50 / µM: 0.0118
- Molecule: "COC[C@]12C[C@H]1[C@@](CF)(c1cc(NC(=O)c3ncc(C#N)cc3C)ccc1F)N=C(N)S2"
  IC50 / µM: 0.00196
- Molecule: "C#CCOc1cnc(C(=O)Nc2cc(F)c(F)c([C@@]3(C)N=C(N)S[C@@]4(C(F)F)C[C@@H]34)c2)c(C)c1"
  IC50 / µM: 0.018
- Molecule: "COC[C@]12C[C@H]1[C@@](C)(c1cc(NC(=O)c3ncc(O[C@@H](C)c4ncco4)nc3C)cc(F)c1F)N=C(N)S2"
  IC50 / µM: 0.652
- Molecule: "Cc1cc(OCC(F)(F)F)cnc1C(=O)Nc1cc(F)c(F)c([C@@]2(C)N=C(N)S[C@@]3(C(F)F)C[C@@H]23)c1"
  IC50 / µM: 0.746
- Molecule: "C#CCOc1cnc2c(Nc3cnc(F)c([C@@]4(C)N=C(N)S[C@@]5(CO)C[C@H]54)c3)ncnc2c1"
  IC50 / µM: 0.17
- Molecule: "C[C@]1(c2cc(Nc3ncnc4cc(OCc5ncco5)cnc34)ccc2F)N=C(N)S[C@]2(CO)[C@H]1C2(F)F"
  IC50 / µM: 0.0404
- Molecule: "C[C@]1(c2cc(NC(=O)c3cnc(OCc4ncco4)cn3)cnc2F)N=C(N)S[C@@]2(CF)C[C@H]21"
  IC50 / µM: 0.0237

A. COC[C@]12C[C@H]1[C@@](C)(c1cc(Nc3nccc4cc(C#N)cnc34)cnc1F)N=C(N)S2
B. COC[C@]12C[C@H]1[C@@](C)(c1cc(NC(=O)c3cnc(OCc4nnc(C)o4)cn3)cc(F)c1F)N=C(N)S2
Of A and B , which one carries the higher reported IC50? Label of pick, please.
B
